assay: Viability qHTS for spleen associated tyrosine kinase inhibitor (SYKi) naive MV4-11 cells (AID 1963823); settings: MV4-11 AML viability, CellTiter-Glo luminescence, 72 h; series mostly up to 45 µM; note: nearly all actives have a fitted effect of over 40% in size; note: potency is the fitted concentration of half-maximal effect
Results filed as inconclusive are left out. The source made the active and inactive calls. Calls come from the whole dose curve; as a rule, active = well fitted cell-killing curve with a large enough effect; inconclusive = small, poorly fitted or top-dose-only effect, or effect the other way; inactive = no such curve, though single readings can be large or run the other way.
readout label: Potency

| molecule | readout label | measured value |
| --- | --- | --- |
| CC1(C(=O)O)CCCC2(C)C3=CCC4CC3(CCC12)CC4CO (stereo unspecified) | Potency | inactive |
| COc1ccc(S(=O)(=O)N(CCO)c2ccccc2CN(C)C/C=C/c2ccc(Cl)cc2)cc1 | Potency | 4.68 µM (active) |
| Cc1[nH]c(=O)c(C#N)cc1-c1ccncc1 | Potency | inactive |
| COc1ccnc(CS(=O)c2nc3ccc(OC(F)F)cc3[nH]2)c1OC (stereo unspecified) | Potency | inactive |
| O=C1N=C(N2CCOCC2)CN1c1ccc(Cl)cc1 | Potency | inactive |

Entry `CC(C)(C)C1CCN(C(=O)n2ncc(C(O)(c3ccccc3)c3ccccc3)n2)CC1` — recorded Potency = 20.6 µM (active)

Entry CC(C)CC1NC(=O)C(C(C)c2ccccc2)NC(=O)C(C(C)C)NC(=O)C(C)NC(=O)CCCNC(=O)C(Cc2c[nH]c3ccccc23)NC(=O)C(C)NC1=O (stereo unspecified) — recorded Potency = inactive

Entry `C=CS(=O)(=O)NC1CCN(C(=O)CNc2cc(I)c(Cl)cc2OC)CC1` — recorded Potency = 3.26 µM (active)

====

experiment: Quantitative highthroughput screen to assess conditional lethalithy of NOMO1 cells grown in RPMI1640 with dialyzed fetal bovine serum (RPMI+ds) (AID 1963877); settings: NOMO1 in RPMI+dialyzed FBS viability, ATP luminescence, 48 h; series mostly up to 45.8 µM; note: nearly all actives have a fitted effect of over 30% in size; note: potency is the fitted concentration of half-maximal effect
Records with an inconclusive call do not appear. Activity calls are given as the source filed them. Calls follow the shape of the dose curve; as a rule, active = well fitted cell-killing curve with a large enough effect; inconclusive = small, poorly fitted or top-dose-only effect; inactive = flat fitted curve, though single readings scatter.
readout label: Potency

The cases that follow already have their Potency on record.
| compound | Potency |
| --- | --- |
| Cc1cc2nc3c(=O)[nH]c(=O)nc-3n(CC(O)C(O)C(O)CO)c2cc1C (stereo unspecified) | inactive |
| Cc1nc(N)ncc1-c1nc(N2CCOCC2)c2sc(C(C)(C)O)cc2n1 | 332 nM (active) |
| COc1ccnc2[nH]cc(C(=O)C(=O)N3CCN(C(=O)c4ccccc4)C[C@@H]3C)c12 | inactive |
| CC(C)(C)c1nc2c3cc[nH]c(=O)c3c3cc(F)ccc3c2[nH]1 | 4690 nM (active) |
| C#CCN(C)CC1=Cc2ccccc2Oc2ccccc21 | inactive |

Entry `N[C@@H](Cc1c[nH]c2ccc(O)cc12)C(=O)O` — recorded Potency = inactive

Entry `c1cc(-c2sc(-c3ccncc3)c(-c3ccncc3)c2-c2ccncc2)ccn1` — recorded Potency = inactive

Entry `O=C(NOC[C@H](O)CO)c1ccc(F)c(F)c1Nc1ccc(I)cc1F` — recorded Potency = 33.2 nM (active)

Entry O=C(O)COCCN1CCN(C(c2ccccc2)c2ccc(Cl)cc2)CC1 (stereo unspecified) — recorded Potency = inactive

Entry `COC(=O)Nc1nc2ccc(C(=O)c3ccc(F)cc3)cc2[nH]1` — recorded Potency = inactive

Entry `OCCn1cc(-c2cnc3nnn(Cc4ccc5ncccc5c4)c3n2)cn1` — recorded Potency = inactive

====

test: Viability qHTS for spleen associated tyrosine kinase inhibitor (SYKi) drug resistant MV4-11 cells (AID 1963824); conditions: SYKi-resistant MV4-11 viability, CellTiter-Glo, 72 h; series mostly up to 45 µM; note: nearly all actives have a fitted effect of over 35% in size
Results filed as inconclusive are left out. Activity calls are given as the source filed them. The call rests on the fitted dose curve; in most records, active means well fitted cell-killing curve with a large enough effect; inconclusive means small, poorly fitted or top-dose-only effect, or effect the other way; inactive means no such curve, though single readings can be large or run the other way.
Permitted responses: active, inactive

Take a look at these entries with their results.
| compound | cat |
| --- | --- |
| C=CC(=O)Nc1cccc(Nc2nc(Nc3ccccc3)ncc2C)c1 | active |
| C=C1C(=O)OC2CC(C)=C(C(C)CCCO[C@@H]3O[C@H](CO)[C@@H](O)[C@H](O)[C@H]3O)C(O)C12 (stereo partly drawn) | inactive |
| CC#C[C@@H](CC(=O)O)c1ccc(OCc2ccc(CN3CCC4(C=Cc5ccccc54)CC3)s2)cc1 | active |
| COc1ccc2[nH]c3c(c2c1)CCN[C@]31CS[C@@H]2c3c(OC(C)=O)c(C)c4c(c3[C@H](COC1=O)N1[C@@H]2[C@H]2c3c(cc(C)c(OC)c3O)C[C@@H]([C@@H]1O)N2C)OCO4 | active |
| O=C1CC[C@H](C(=O)N2CCCCC2)N1 | inactive |

Field: outcome | Entry: `C/C=C(\C)C(=O)O[C@H]1C=C(CO)C(=O)[C@H](OC(C)=O)[C@H]1C(C)C`
active

Field: outcome | Entry: `C=C1C(=O)O[C@@H]2[C@H]3C(C)=CC(=O)C3=C(C)CC[C@@H]12`
active

Field: outcome | Entry: `c1ccc(CC2=NCCN2)cc1`
inactive

Field: outcome | Entry: CC(C)(O)C1CC=C(C(=O)OC[C@H]2O[C@@H](Oc3cc(C(=O)O)cc(O)c3O)[C@H](O)[C@@H](O)[C@@H]2O)CC1 (stereo partly drawn)
inactive

Field: outcome | Entry: Cc1coc2c1CC1OC1(C)CCC1OC1(C)C2 (stereo not drawn)
inactive

Field: outcome | Entry: `C=CC[C@@H]1/C=C(\C)C[C@H](C)C[C@H](OC)[C@H]2O[C@@](O)(C(=O)C(=O)N3CCCC[C@H]3C(=O)O[C@H](/C(C)=C/[C@@H]3CC[C@@H](O)[C@H](OC)C3)[C@H](C)[C@@H](O)CC1=O)[C@H](C)C[C@@H]2OC`
active

Field: outcome | Entry: OCC1OC(Oc2cc(O)cc(/C=C/c3ccc(O)cc3)c2)C(O)C(O)C1O (stereo not drawn)
inactive

Field: outcome | Entry: `COC(=O)N1CC2(CC2)C[C@H](C(=O)NO)[C@H]1C(=O)N1CCN(c2ccccc2)CC1`
inactive

Field: outcome | Entry: `NCCC(O)(P(=O)(O)O)P(=O)(O)O`
inactive

Field: outcome | Entry: `C[N+](C)(C)CC[N+]1(C)Cc2c(Cl)c(Cl)c(Cl)c(Cl)c2C1`
inactive

Field: outcome | Entry: `NC(=O)c1cc(F)cc2c1C(=O)N(C1CCN(C3CCC(F)(F)CC3)CC1)C2`
inactive

Field: outcome | Entry: `CC(C)CNc1ccnc(NCc2csc(-c3ccccc3)n2)n1`
active

Field: outcome | Entry: `C=C1CCN([C@H](C)[C@](O)(Cn2cncn2)c2ccc(F)cc2F)CC1`
active

Field: outcome | Entry: CCCCCN(CCCCC)C(=O)C(CCC(=O)O)NC(=O)c1ccc(Cl)c(Cl)c1 (stereo not drawn)
inactive
